- System name: Trypanothione reductase (Leishmania infantum) (UniProt A4HSF7)
- Sequence (A4HSF7 as listed by the source): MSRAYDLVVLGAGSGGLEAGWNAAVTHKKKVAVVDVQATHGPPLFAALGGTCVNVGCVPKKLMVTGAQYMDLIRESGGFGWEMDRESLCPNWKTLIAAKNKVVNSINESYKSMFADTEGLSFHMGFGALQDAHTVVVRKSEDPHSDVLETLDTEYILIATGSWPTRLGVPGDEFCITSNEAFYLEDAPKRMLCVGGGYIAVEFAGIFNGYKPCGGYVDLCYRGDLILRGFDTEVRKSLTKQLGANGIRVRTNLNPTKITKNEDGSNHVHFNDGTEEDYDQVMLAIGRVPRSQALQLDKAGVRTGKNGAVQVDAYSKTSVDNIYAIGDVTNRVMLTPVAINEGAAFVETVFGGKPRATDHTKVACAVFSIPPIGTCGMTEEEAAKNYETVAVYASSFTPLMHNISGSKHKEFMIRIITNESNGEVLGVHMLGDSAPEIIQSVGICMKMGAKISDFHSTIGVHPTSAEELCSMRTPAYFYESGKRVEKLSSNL
- Experimental protocol: Inhibition of dimerization of HIS/FLAG tagged Leishmania infantum trypanothione reductase assessed as dimer levels at 37.5 uM incubated for 16 hrs by ELISA
- Design: scale not given: the % may be the effect or the level left
Non-standard residues stand in square brackets, D forms with d. Residues, ends and D or L forms follow the SMILES beside them. R5 = C=CCCC[C@@](C)(N)C(=O)O
Measured parameter: Activity (%)
Supply the numeric figure in %, leaving out any unit text.

Solved entries (count: 3):
C=CCCC[C@@](C)(NC(=O)[C@@H](NC(=O)[C@H](CO)NC(=O)[C@H](CCC(N)=O)NC(=O)[C@@](C)(CCCC=C)NC(=O)[C@@H](NC(=O)[C@H](CCCCN)NC(=O)[C@@H]1CCCN1C(C)=O)[C@@H](C)CC)C(C)C)C(=O)N[C@H](C(=O)N[C@@H](CO)C(=O)NCC(=O)N[C@@H](CCCCN)C(=O)NCC(N)=O)[C@@H](C)CC (Ac-PKI[R5]QSV[R5]ISGKG-NH2): 175
CCCC[C@@H](NC(=O)[C@H](CC(C)C)NC(=O)[C@@H](CCCC)NC(=O)[C@H](CO)NC(=O)[C@@H](NC(=O)CNC(=O)C1(C)CCCC=CCCC[C@@](C)(NC(=O)[C@@H](NC(=O)[C@H](CC(C)C)NC(=O)[C@@H]2CCCN2C(C)=O)[C@@H](C)CC)C(=O)N[C@@H](CCC(N)=O)C(=O)N[C@@H](CO)C(=O)N[C@@H](C(C)C)C(=O)N1)[C@@H](C)CC)C(N)=O (some centres undefined): 169
CCCC[C@@H](NC(=O)[C@H](CC(C)C)NC(=O)[C@@H](CCCC)NC(=O)[C@H](CO)NC(=O)[C@@H](NC(=O)CNC(=O)[C@@H](NC(=O)[C@H](CO)NC(=O)[C@H](CCC(N)=O)NC(=O)[C@@H](NC(=O)[C@@H](NC(=O)[C@H](CC(C)C)NC(=O)[C@@H]1CCCN1C(C)=O)[C@@H](C)CC)[C@@H](C)CC)C(C)C)[C@@H](C)CC)C(N)=O: 18

QUERY: What does the data say about its Activity? Entry: CCCC[C@H](NC(=O)[C@H](CC(C)C)NC(=O)[C@H](CCCC)NC(=O)[C@H](CO)NC(=O)[C@@H](NC(=O)CNC(=O)[C@]1(C)CCCC=CCCC[C@@](C)(NC(=O)[C@H](CC(C)C)NC(=O)[C@@H]2CCCN2C(C)=O)C(=O)N[C@@H]([C@@H](C)CC)C(=O)N[C@@H](CCC(N)=O)C(=O)N[C@@H](CO)C(=O)N1)[C@@H](C)CC)C(N)=O (stereo in doubt; 2a)
RESULT: 153
